Target: Nuclear receptor ROR-gamma (Homo sapiens) (UniProt P51449)
Experiment: qHTS assay to identify small molecule antagonists of the retinoid-related orphan receptor gamma (ROR-gamma) signaling pathway (AID 1159521; also: nearly all actives have a fitted effect of over 50% in size)
Conditions: Tet-on RORgamma CHO cells, RORE-luciferase, 16 h; series mostly up to 92.4 µM
Results filed as inconclusive are left out. The source made the active and inactive calls. Calls follow the shape of the dose curve; as a rule, active = well fitted inhibition curve with a large enough effect in the repeat runs; inconclusive = weak or mixed curves, or effect the other way; inactive = no such curve, though single readings can be large or run the other way.
Hi there, use one of these labels in your reply, thanks! 1 = active, -1 = inactive

Here's what some known entries look like.
OCCCCl	-1
S=C(SSSSSSC(=S)N1CCCCC1)N1CCCCC1	1
C#CC(O)CCC (stereo not given)	-1
CCCCCCCC/C=C\CCCCCCCC(=O)NCc1ccc(O)c(OC)c1	-1

Request: Field: outcome | Entry: "CCOB(OCC)OCC"
Result: -1

Request: Try "OCCCc1cccnc1" next.
Result: -1

Request: Now give it for "CCOC(/C=C(\C)CCC=C(C)C)OCC" too.
Result: -1

Request: Another molecule to check: "CCCCOCC"
Result: -1

Request: Try "CC(=O)OC1CCCCC1" next.
Result: -1

Request: Also check CC(C)=CCCC(C)O (stereo not given)
Result: -1

Request: Let us now turn to "O=C1NCCN1CCN1CCC(c2cn(-c3ccc(F)cc3)c3ccc(Cl)cc23)CC1"
Result: 1

Request: // next record "COc1ccccc1C=O"
Result: -1

Request: Let us now turn to "COc1nccnc1CC(C)C"
Result: -1

Request: And then "CCCCCCCC/C=C\CCCCCCCC(=O)OCCOC(=O)CCCCCCC/C=C\CCCCCCCC" , what is it?
Result: -1

Request: Thanks! And "CCCCCCCC(OC)OC" ?
Result: -1

Request: Now consider "Cc1occc1SSc1ccoc1C" and answer again.
Result: -1

Request: And the next one, "CC(C)c1ccc(O)c(C(C)C)c1" ?
Result: -1

Request: Also need "NC1(c2ccc(-c3nc4ccn5c(=O)[nH]nc5c4cc3-c3ccccc3)cc2)CCC1" , thanks.
Result: 1

Request: Here is the next molecule: "OCCN1CN(CCO)CN(CCO)C1"
Result: -1

Request: What do you have for "CCCCCCOc1ccc(O)cc1" ?
Result: -1

Request: Continue with "CC(=O)O[C@@H]1C[C@@H]2CC[C@@]1(C)C2(C)C"
Result: -1

Request: Can you handle "SCCCCCCCCS" next?
Result: -1

Request: Next molecule: "O=C[C@H](O)[C@H](O)[C@H](O)CO"
Result: -1

Request: Could you do the same for "CC1CCCCC1" , please?
Result: -1

Request: Now consider "CCCSS/C(CCO)=C(\C)N(C=O)Cc1cnc(C)nc1N" .
Result: -1

----------
Assay: qHTS assay for small molecule agonists of the antioxidant response element (ARE) signaling pathway - cell viability counter screen (AID 743203); also: nearly all actives have a fitted effect of over 55% in size
Conditions: ARE-bla HepG2 viability, CellTiter-Glo luminescence, 16 h; series mostly up to 73.3 µM
Records with an inconclusive call do not appear. Activity calls are given as the source filed them. Calls come from the whole dose curve.
Return exactly one item of active, inactive

C=CC(C)(CCC=C(C)C)OC(=O)/C=C/c1ccccc1 (centres undefined)	inactive
c1cc(OCC2CO2)cc(OCC2CO2)c1 (centres undefined)	inactive
COc1ccc2sc(C(=O)Nc3nnn[nH]3)c(OC(C)C)c2c1	inactive
C/C=C/C=N/NC(=O)c1ccncc1	inactive
O=S(=O)(O)CCCN1CCOCC1	inactive

Request: Recorded test call requested for CCC(C)c1cc([N+](=O)[O-])cc([N+](=O)[O-])c1OC(=O)OC(C)C (centres undefined)
Result: active

Request: Query CCNc1nc(NC(C)CC)nc(OC)n1 (centres undefined) next
Result: inactive

Request: And for "CCOC(=O)N1CCC(=C2c3ccc(Cl)cc3CCc3cccnc32)CC1" ?
Result: active

Request: Next compound: "CC=O"
Result: active

----------
Assay: qHTS assay to identify small molecule antagonists of the progesterone receptor (PR) signaling pathway - cell viability counter screen (AID 1346798); also: nearly all actives have a fitted effect of over 50% in size
Details: PR-UAS-bla HEK293T viability, CellTiter-Glo luminescence, 16 h; series mostly up to 92.4 µM
Records with an inconclusive call do not appear. The source made the active and inactive calls. Calls come from the whole dose curve; as a rule, active = well fitted cell-killing curve with a large enough effect in the repeat runs; inconclusive = weak or mixed curves, or effect the other way; inactive = no such curve, though single readings can be large or run the other way.
The reply should name one outcome from active, inactive

CCC1(c2cnc[nH]2)Cc2ccccc2C1	inactive
C(=C/c1ccccc1)/c1ccccc1	inactive
COc1nccnc1CC(C)C	inactive

Request: Which outcome was entered for the molecule "CCN(CC)CCNc1ccc(CO)c2sc3ccccc3c(=O)c12" in this test?
Result: active

Request: Next entry: "C[C@@H]1CC[C@H]2C(C)(C)[C@H]3C[C@@]12CC[C@@]3(C)O"
Result: inactive

Request: Try this molecule too: "O=Nc1ccc(NO)cc1"
Result: inactive

Request: Moving on to "O[C@@H](c1cc(C(F)(F)F)nc2c(C(F)(F)F)cccc12)[C@H]1CCCCN1"
Result: active

Request: Same for "NCCCC(O)(P(=O)(O)O)P(=O)(O)O"
Result: inactive

Request: Same read-out for O=C1OC(OC(=O)c2cccnc2Nc2cccc(C(F)(F)F)c2)c2ccccc21 (configuration not stated) ?
Result: inactive

Request: Now consider "C=CC(=O)OCCN(CC)CC" and answer again.
Result: inactive

Request: What do you get for "CC(C)=C1CC[C@@H](C)CC1=O" ?
Result: inactive

Request: Would you kindly repeat that for "CC(C)(C)c1cc(CCC(=O)NCCCCCCNC(=O)CCc2cc(C(C)(C)C)c(O)c(C(C)(C)C)c2)cc(C(C)(C)C)c1O" ?
Result: inactive

----------
Assay: A CellTox Green Cytotoxicity Assay to monitor cytotoxicity in HepG2 cells - 8 hour (AID 1224890); also: nearly all actives have a fitted effect of over 45% in size
Details: CellTox Green fluorescence; series mostly up to 76.8 µM
Results filed as inconclusive are left out. Active and inactive are the calls of the source. Calls come from the whole dose curve; as a rule, active = well fitted activation curve with a large enough effect in the repeat runs; inconclusive = weak or mixed curves; inactive = flat fitted curve, though single readings scatter.
Would you mind answering with one of these outcomes? y (active), n (inactive)

Request: Check the results log: what was the call for "O[C@@H](c1cc(C(F)(F)F)nc2c(C(F)(F)F)cccc12)[C@H]1CCCCN1" ?
Result: y

Request: Would you kindly repeat that for CC1CNCC(C)O1 (stereo not drawn) ?
Result: n

Request: Also check "COC(=O)[C@]1(C)CCC[C@@]2(C)[C@H]1CC=C1C=C(C(C)C)CC[C@@H]12"
Result: y

----------
Experiment: qHTS assay to identify small molecule antagonists of the TGF-beta/Smad signaling pathway - cell viability counter screen (AID 1346824); also: % is scaled to controls: 0 for no effect and ±100 for the full control effect; nearly all actives have a fitted effect of over 50% in size
Conditions: SBE-bla HEK293T viability, CellTiter-Glo luminescence; series mostly up to 76.8 µM
Inconclusive results are not listed. Calls of active or inactive are those of the source. Calls come from the whole dose curve; as a rule, active = well fitted cell-killing curve with a large enough effect in the repeat runs; inconclusive = weak or mixed curves; inactive = flat fitted curve, though single readings scatter.
value_type: viability change, negative = cytotoxic

C[Si](C)O[Si](C)C	inactive
CCCCCCCCCCCCCCCCCO	-8.2% [at 15.8 µM] (inactive)
O=C1NC2CCCCN2C12CCN(CCCN1c3ccccc3CCc3ccc(Cl)cc31)CC2 (stereo not drawn)	inactive
CCc1cccc(C)c1	inactive
O=C=NCc1cccc(CN=C=O)c1	-4.21% [at 15.8 µM] (inactive)

Request: Given the molecule "Cc1cncc(C)c1" , what is its reported viability change, negative = cytotoxic?
Result: inactive

Request: Here is the next molecule: "Cc1ccc(O)cn1"
Result: inactive

Request: Next: "Nc1ccc2cc3ccc(N)cc3nc2c1"
Result: inactive

----------
Assay: qHTS assay for small molecule agonists of the antioxidant response element (ARE) signaling pathway - cell viability counter screen (AID 743203); also: nearly all actives have a fitted effect of over 55% in size
Settings: ARE-bla HepG2 viability, CellTiter-Glo luminescence, 16 h; series mostly up to 73.3 µM
Inconclusive results are not listed. Activity calls are given as the source filed them. Calls follow the shape of the full dose curve.
The reply should be one of these categories: TRUE = active, FALSE = inactive

Solved cases below.
COc1cccc(CCc2ccccc2OCC(CN(C)C)OC(=O)CCC(=O)O)c1 (configuration not stated)	FALSE
COc1cc(C=C2CCC/C(=C\c3ccc(O)c(OC)c3)C2=O)ccc1O	TRUE
O[C@@H](c1cc(C(F)(F)F)nc2c(C(F)(F)F)cccc12)[C@H]1CCCCN1	TRUE
CCN(CC)CCNc1ccc(CO)c2sc3ccccc3c(=O)c12	TRUE
CCCCNc1c(C(=O)OCC)c(C)nc2c1cnn2CC	FALSE
COc1ccc(-n2nc(CCC(=O)N(C)O)cc2-c2ccc(Cl)cc2)cc1	FALSE
[O]=[Zr]	FALSE
CC(C)(C)c1cc(/C=C2\SC(=N)NC2=O)cc(C(C)(C)C)c1O	TRUE

Request: Could you please tell me the result logged for "O=C(O)c1cccc(Cl)n1" in this assay?
Result: FALSE

Request: And what about the compound "CCN(CC)CCSC(=O)C(c1ccccc1)c1ccccc1" ?
Result: FALSE

Request: Item: "CC(C)=C1CC[C@@H](C)CC1=O"
Result: FALSE

Request: Note, next up: "CCN=C1C=CC(=C(c2ccc(N(CC)CC)cc2)c2ccc(N(CC)CC)cc2)c2ccccc21"
Result: TRUE
